- study system: Complement C5 (Homo sapiens, UniProt P01031)
quantity measured: Kd (nM)
Your answer should be a plain number; it is taken to be in nM.

Incoming: Name the reported Kd value associated with the compound CC(C(=O)O)c1ccc2c(c1)[nH]c1ccc(Cl)cc12 (stereo unspecified)
Outgoing: 580

* * *

- study system: Complement C5 (Homo sapiens, UniProt P01031)
- assay text: Binding affinity to human C5a assessed as Potassium iodide-induced quenching by measuring Stern-Volmer quenching constant at 1 uM by fluorescence analysis
Listing of recorded KSV by entry.
Your answer should be a plain number; it is taken to be in M⁻¹.

Look over these answered cases.
O=C(c1ccc(OCCN2CCCCC2)cc1)c1c(-c2ccc(O)cc2)sc2cc(O)ccc12 ... 1.1
CC(C(=O)O)c1ccc2c(c1)[nH]c1ccc(Cl)cc12 (stereo not given) ... 2.6
CC(=O)N[C@@H](Cc1c[nH]c2ccccc12)C(N)=O ... 12.4

Incoming: Name the reported KSV value associated with the molecule O=C(O)CCc1nc(-c2ccccc2)c(-c2ccccc2)o1
Outgoing: 4.3

Incoming: Queued: CC1=C(CC(=O)O)c2cc(F)ccc2/C1=C\c1ccc([S+](C)[O-])cc1 (stereo not given)
Outgoing: 2.5
